# measurementNotes: AUC (0 to t) in CD-1 mouse at 20 mg/kg, po by LC-MS/MS method
# Type: ADME, organism-based
# assayContext: in vivo
observable: AUC(0-t) (ng·h/mL)
Lab book: enter the figure in ng·h/mL, no units written.

Query block: I'd like to know its AUC(0-t). The molecule in question is Cc1n[nH]c2ccc(-c3cc(N[C@@H](CO)c4ccccc4)cnc3-c3cc(F)ccc3O)cc12
Result block: 2400

====

# measurementNotes: Tmax in CD-1 mouse at 20 mg/kg, po by LC-MS/MS method
# Type: ADME, organism-based
# assayContext: in vivo
observable: Tmax (min)
A number alone suffices; assume min.

Query block: Field request: Tmax | item: Cc1n[nH]c2ccc(-c3cc(N[C@@H](CO)c4ccccc4)cnc3-c3cc(F)ccc3O)cc12
Result block: 25.2

The origin of these recorded values is ChEMBL document CHEMBL4017490.
